# experimental.target: T1, 4H909-AA
# T1 chain: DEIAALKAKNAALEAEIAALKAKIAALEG
# protocol.text: two-hybrid library CCmax;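 note: natural log of median RNA to DNA barcode read ratio; higher means stronger binding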
# condition.parameters: mean of both orientations
Would you kindly list interaction score for each of these binders?
Answers are plain numbers.

# annotated cases, reported interaction score shown
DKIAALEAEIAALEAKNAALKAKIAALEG [4H2109-AA] | -0.525
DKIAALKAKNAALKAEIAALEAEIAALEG [4H3009-AA] | 0.523
DEIAALKAEIAALEAENAALEAKNAALKG [4H536-AA] | -1.61
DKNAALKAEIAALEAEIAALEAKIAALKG [4H3590-AA] | -1.14

Items follow; give interaction score for each.
1. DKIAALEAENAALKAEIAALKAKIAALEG [4H2253-AA]
2. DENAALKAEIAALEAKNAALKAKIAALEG [4H1597-AA]
3. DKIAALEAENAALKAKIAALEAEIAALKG [4H2274-AA]

-0.788
-1.1
-1.73
